- Test system: CAKI-1
- test.summary: Antiproliferative activity against human CAKI1 cells after 48 hrs
- Format: functional
- setup.conditions: CAKI-1, 48 h, read-out: Log TGI (converted)

[
  {
    "substance.smiles": "CCCCCCCCCCCCCCN[C@H](C)[C@@H](O)c1ccccc1.Cl",
    "measurement.target": "CAKI-1",
    "TGI, µM": 3.39
  },
  {
    "substance.smiles": "CCCCCCCCCCCCCCN[C@@H](C)[C@H](O)c1ccccc1",
    "measurement.target": "CAKI-1",
    "TGI, µM": 3.39
  },
  {
    "substance.smiles": "C[C@@H](NC(=O)CCCCCCCCCCCCCCC[n+]1ccccc1)[C@@H](O)c1ccccc1.[Br-]",
    "measurement.target": "CAKI-1",
    "TGI, µM": 30.2
  },
  {
    "substance.smiles": "CCCCCCCCCCCCCCN[C@@H](CO)Cc1ccccc1",
    "measurement.target": "CAKI-1",
    "TGI, µM": 3.09
  },
  {
    "substance.smiles": "C[C@H](NC(=O)CCCCCCCCCCCCCCC[n+]1ccccc1)[C@H](O)c1ccccc1.[Br-]",
    "measurement.target": "CAKI-1",
    "TGI, µM": 27.5
  },
  {
    "substance.smiles": "CCCCCCCCCCCCCCN[C@H](CO)[C@H](O)c1ccc([N+](=O)[O-])cc1.Cl",
    "measurement.target": "CAKI-1",
    "TGI, µM": 24
  },
  {
    "substance.smiles": "CCCCCCCCCCCCCCN[C@H](CO)[C@H](O)c1ccccc1",
    "measurement.target": "CAKI-1",
    "TGI, µM": 3.55
  }
]
